Where do the numbers come from? From paper PMC10045483.

Please respond with reported CL/F for every item in the list.
# ASSAY REMARKS: Pharmacokinetic study of 5 compounds in rat plasma after oral administration of Zuogui Pill extract (HPLC-MS/MS, noncompartmental analysis)
# Type: in vivo, Female Sprague-Dawley rats
# EXPERIMENTAL SETUP: female, Sprague-Dawley, rat, po, 1.5 mL/100 g, osteoporotic rats with kidney-yang-deficiency, oral Zuogui Pill extract 1.5 mL/100 g, n = 6, read-out: CL_F_obs (converted)
# Experimental: Female Sprague-Dawley rats (180–220 g) were purchased from Shanghai Laboratory Animal Centre (Shanghai, China). The rats were maintained in a standard environment (22 ± 1°C, 60 ± 10% relative humidity, and a 12 h light/dark cycle) for one week to acclimate and fed water and food ad libitum. Twenty-four rats were divided randomly into […] and treated through ovary enucleation to establish the model of osteoporosis. […]
Answers are plain numbers, in mL/min/kg.

Look up CL/F for the entries below, preserving their order.
1. COC(=O)C1=CO[C@@H](O[C@@H]2O[C@H](CO)[C@@H](O)[C@H](O)[C@H]2O)[C@@H]2[C@@H](C)[C@@H](O)C[C@H]12
2. COC(=O)C1=CO[C@@H](O[C@@H]2O[C@H](CO)[C@@H](O)[C@H](O)[C@H]2O)[C@@H]2[C@H](C)O[C@@H](O)C[C@H]12 [Morroniside, morroniside]
3. O=C(/C=C/c1ccc(O)c(O)c1)O[C@@H]1C[C@](O)(C(=O)O)C[C@@H](O)[C@H]1O
4. O=Cc1ccc(O)c(O)c1
5. OCC1=C[C@@H](O)[C@@H]2C=CO[C@@H](O[C@@H]3O[C@H](CO)[C@@H](O)[C@H](O)[C@H]3O)[C@H]12

[A]
1. 4280
2. 59.4
3. 29.5
4. 50.5
5. 38.8

====

# ASSAY REMARKS: Pharmacokinetic study of 5 compounds in rat plasma after oral administration of Zuogui Pill extract (HPLC-MS/MS, noncompartmental analysis)
# Format: in vivo, Female Sprague-Dawley rats
# EXPERIMENTAL SETUP: female, Sprague-Dawley, rat, po, 1.5 mL/100 g, normal rats, oral Zuogui Pill extract 1.5 mL/100 g, n = 6, read-out: MRT0–∞
# Description: Female Sprague-Dawley rats (180–220 g) were purchased from Shanghai Laboratory Animal Centre (Shanghai, China). The rats were maintained in a standard environment (22 ± 1°C, 60 ± 10% relative humidity, and a 12 h light/dark cycle) for one week to acclimate and fed water and food ad libitum. Twenty-four rats were divided randomly into […] and treated through ovary enucleation to establish the model of osteoporosis. […]
Please respond with reported MRT inf for every item in the list.
Give bare numbers, in h.

COC(=O)C1=CO[C@@H](O[C@@H]2O[C@H](CO)[C@@H](O)[C@H](O)[C@H]2O)[C@@H]2[C@@H](C)[C@@H](O)C[C@H]12: 5.1

Look up MRT inf for the entries below, preserving their order.
1. O=Cc1ccc(O)c(O)c1
2. OCC1=C[C@@H](O)[C@@H]2C=CO[C@@H](O[C@@H]3O[C@H](CO)[C@@H](O)[C@H](O)[C@H]3O)[C@H]12
3. O=C(/C=C/c1ccc(O)c(O)c1)O[C@@H]1C[C@](O)(C(=O)O)C[C@@H](O)[C@H]1O

[A]
1: 15.8; 2: 8.58; 3: 8.17

// sample COC(=O)C1=CO[C@@H](O[C@@H]2O[C@H](CO)[C@@H](O)[C@H](O)[C@H]2O)[C@@H]2[C@H](C)O[C@@H](O)C[C@H]12 [Morroniside, morroniside] , its MRT inf was 3.66

====

# ASSAY REMARKS: Pharmacokinetic study of 5 compounds in rat plasma after oral administration of Zuogui Pill extract (HPLC-MS/MS, noncompartmental analysis)
# Assay type: in vivo, Female Sprague-Dawley rats
# EXPERIMENTAL SETUP: female, Sprague-Dawley, rat, po, 1.5 mL/100 g, osteoporosis rats (ovariectomized), oral Zuogui Pill extract 1.5 mL/100 g, n = 6, read-out: MRT0–∞
Please respond with reported MRT inf for every item in the list.
Numbers only, in h.

COC(=O)C1=CO[C@@H](O[C@@H]2O[C@H](CO)[C@@H](O)[C@H](O)[C@H]2O)[C@@H]2[C@@H](C)[C@@H](O)C[C@H]12: 5.02
COC(=O)C1=CO[C@@H](O[C@@H]2O[C@H](CO)[C@@H](O)[C@H](O)[C@H]2O)[C@@H]2[C@H](C)O[C@@H](O)C[C@H]12 [Morroniside, morroniside]: 4.51
O=C(/C=C/c1ccc(O)c(O)c1)O[C@@H]1C[C@](O)(C(=O)O)C[C@@H](O)[C@H]1O: 9.72
O=Cc1ccc(O)c(O)c1: 17.8

// next item, MRT inf requested
// sample `OCC1=C[C@@H](O)[C@@H]2C=CO[C@@H](O[C@@H]3O[C@H](CO)[C@@H](O)[C@H](O)[C@H]3O)[C@H]12` , its MRT inf was 5.62

====

# ASSAY REMARKS: Pharmacokinetic study of 5 compounds in rat plasma after oral administration of Zuogui Pill extract (HPLC-MS/MS, noncompartmental analysis)
# Type: in vivo, Female Sprague-Dawley rats
# EXPERIMENTAL SETUP: female, Sprague-Dawley, rat, po, 1.5 mL/100 g, osteoporotic rats with kidney-yin-deficiency, oral Zuogui Pill extract 1.5 mL/100 g, n = 6
The label depends only on Cmax: yes (1) if it is at least 400 ng/mL, no (0) if it is smaller.

// known answers, use as guide
COC(=O)C1=CO[C@@H](O[C@@H]2O[C@H](CO)[C@@H](O)[C@H](O)[C@H]2O)[C@@H]2[C@@H](C)[C@@H](O)C[C@H]12 [Loganin, loganin]: yes (1)
O=C(/C=C/c1ccc(O)c(O)c1)O[C@@H]1C[C@](O)(C(=O)O)C[C@@H](O)[C@H]1O [Chlorogenic acid, chlorogenic acid]: no (0)
COC(=O)C1=CO[C@@H](O[C@@H]2O[C@H](CO)[C@@H](O)[C@H](O)[C@H]2O)[C@@H]2[C@H](C)O[C@@H](O)C[C@H]12 [Morroniside, morroniside]: yes (1)

[Q] Determine whether measured Cmax meets or exceeds 400 ng/mL for OCC1=C[C@@H](O)[C@@H]2C=CO[C@@H](O[C@@H]3O[C@H](CO)[C@@H](O)[C@H](O)[C@H]3O)[C@H]12 [Aucubin, aucubin]
[A] no (0)

[Q] Determine whether measured Cmax meets or exceeds 400 ng/mL for O=Cc1ccc(O)c(O)c1 [Protocatechuic aldehyde, protocatechuic aldehyde]
[A] no (0)

====

Please respond with reported Stability, Room temperature for 4 h, Mean for every item in the list.
# ASSAY REMARKS: Stability of analytes in rat plasma (QC samples) under storage conditions
# EXPERIMENTAL SETUP: 25°C, high QC (800, 16000, 3200, 400, 40 ng/mL in the same order), n = 5

Here is how some compounds turned out for Stability, Room temperature for 4 h, Mean.
COC(=O)C1=CO[C@@H](O[C@@H]2O[C@H](CO)[C@@H](O)[C@H](O)[C@H]2O)[C@@H]2[C@H](C)O[C@@H](O)C[C@H]12 [Morroniside, morroniside]: 98.3%
COC(=O)C1=CO[C@@H](O[C@@H]2O[C@H](CO)[C@@H](O)[C@H](O)[C@H]2O)[C@@H]2[C@@H](C)[C@@H](O)C[C@H]12: 85.6%
O=C(/C=C/c1ccc(O)c(O)c1)O[C@@H]1C[C@](O)(C(=O)O)C[C@@H](O)[C@H]1O: 85.7%

Look up Stability, Room temperature for 4 h, Mean for the entries below, preserving their order.
1. O=Cc1ccc(O)c(O)c1
2. OCC1=C[C@@H](O)[C@@H]2C=CO[C@@H](O[C@@H]3O[C@H](CO)[C@@H](O)[C@H](O)[C@H]3O)[C@H]12

[A]
1: 87.4%; 2: 92.8%

====

# ASSAY REMARKS: Pharmacokinetic study of 5 compounds in rat plasma after oral administration of Zuogui Pill extract (HPLC-MS/MS, noncompartmental analysis)
# Format: in vivo, Female Sprague-Dawley rats
# EXPERIMENTAL SETUP: female, Sprague-Dawley, rat, po, 1.5 mL/100 g, normal rats, oral Zuogui Pill extract 1.5 mL/100 g, n = 6
Please respond with reported Tmax for every item in the list.
Answers are plain numbers, in min.

COC(=O)C1=CO[C@@H](O[C@@H]2O[C@H](CO)[C@@H](O)[C@H](O)[C@H]2O)[C@@H]2[C@H](C)O[C@@H](O)C[C@H]12 [Morroniside, morroniside]: 17.4
OCC1=C[C@@H](O)[C@@H]2C=CO[C@@H](O[C@@H]3O[C@H](CO)[C@@H](O)[C@H](O)[C@H]3O)[C@H]12: 22.8
COC(=O)C1=CO[C@@H](O[C@@H]2O[C@H](CO)[C@@H](O)[C@H](O)[C@H]2O)[C@@H]2[C@@H](C)[C@@H](O)C[C@H]12: 15

// next item, Tmax requested
// sample `O=Cc1ccc(O)c(O)c1` , its Tmax was 27
